# Test system: polymorphonuclear leucocytes from rat pleural cavity
# test-description: release of β-glucuronidase by polymorphonuclear leucocytes from rat pleural cavity in vitro (PAF as irritant)
# Assay type: cell-based
# details: Dose 2 × 10^−6 mol · L^−1; Irritant 1 × 10^−7 mol · L^−1
Where a name gives a salt, the structure may show the parent alone.
observation-type: Inhibition (%) of β-glucuronidase release
Give your result in % as a bare value.

# Inhibition (%) of β-glucuronidase release of CCOC(=O)C1CCCN(CCC(=O)C=Cc2ccc(Cl)cc2Cl)C1.Cl (stereo not shown) = 84.38

Measured Inhibition (%) of β-glucuronidase release of CCOC(=O)C1CCN(CCC(=O)/C=C/c2ccc(Cl)cc2)CC1 [Compound 3, hydrochloride] : 142.96

Entry "CCOC(=O)C1CCN(CCC(=O)C=Cc2ccc(C#N)cc2)CC1.Cl" , Inhibition (%) of β-glucuronidase release reported as 126.36

Note to self: Inhibition (%) of β-glucuronidase release recorded for CCOC(=O)N1CCN(CCC(=O)C=Cc2ccc(C#N)cc2)CC1.Cl [Compound 34a] was 121.34

// provenance: patent US8524744B2
